Reference for the values: ChEMBL document CHEMBL2429832

Target under test: Histamine H4 receptor (Homo sapiens)
Sequence (Q9H3N8 whole entry): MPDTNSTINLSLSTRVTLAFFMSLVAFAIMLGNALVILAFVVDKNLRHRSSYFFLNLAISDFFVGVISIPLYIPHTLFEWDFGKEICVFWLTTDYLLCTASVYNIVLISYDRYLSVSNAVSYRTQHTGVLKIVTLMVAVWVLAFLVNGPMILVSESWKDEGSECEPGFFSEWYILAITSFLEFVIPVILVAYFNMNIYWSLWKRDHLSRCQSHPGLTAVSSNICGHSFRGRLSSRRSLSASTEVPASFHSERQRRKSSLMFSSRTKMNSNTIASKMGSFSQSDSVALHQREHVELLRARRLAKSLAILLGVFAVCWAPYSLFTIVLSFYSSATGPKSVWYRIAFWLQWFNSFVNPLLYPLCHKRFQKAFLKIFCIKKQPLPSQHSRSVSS
pKi: −log10 of the molar value.
Measurement label: pKi

pKi lookup needed for c1ccc(CCN[C@H]2C3C4CC5C6C4CC3C6C52)nc1 (stereo partly specified) , thanks.
< 5.00

---

Target under test: Histamine H2 receptor (Homo sapiens, UniProt P25021)
Sequence (P25021 whole entry): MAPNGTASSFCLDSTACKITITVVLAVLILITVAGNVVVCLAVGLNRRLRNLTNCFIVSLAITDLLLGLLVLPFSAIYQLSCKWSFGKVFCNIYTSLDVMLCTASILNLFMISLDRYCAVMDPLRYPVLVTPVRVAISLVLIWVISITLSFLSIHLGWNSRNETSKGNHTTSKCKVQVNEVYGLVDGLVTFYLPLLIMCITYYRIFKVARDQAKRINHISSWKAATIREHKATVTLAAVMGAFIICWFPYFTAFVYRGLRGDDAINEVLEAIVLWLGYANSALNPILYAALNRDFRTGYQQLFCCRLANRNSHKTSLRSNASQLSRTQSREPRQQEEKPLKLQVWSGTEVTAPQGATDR
Procedure text: Inhibition of histamine H2 receptor (unknown origin) at 10 uM by PDSP assay relative to control
Measurement label: inhibition

COc1ccc(CN(C)[C@H]2C3C4CC5C3C(=O)C3C5C4C32)cc1OC (stereo partly drawn) :: < 50%
CN(Cc1cccnc1)[C@H]1C2C3CC4C2C(=O)C2C4C3C21 (stereo partly drawn) :: < 50%

Consider the record given below.
inhibition lookup needed for COc1cc(CN(C)[C@H]2C3C4CC5C6C4CC3C6C52)cc(OC)c1OC (stereo partly drawn) , thanks.
< 50%

---

Target under test: Histamine H3 receptor (Homo sapiens)
Sequence (Q9Y5N1 whole entry): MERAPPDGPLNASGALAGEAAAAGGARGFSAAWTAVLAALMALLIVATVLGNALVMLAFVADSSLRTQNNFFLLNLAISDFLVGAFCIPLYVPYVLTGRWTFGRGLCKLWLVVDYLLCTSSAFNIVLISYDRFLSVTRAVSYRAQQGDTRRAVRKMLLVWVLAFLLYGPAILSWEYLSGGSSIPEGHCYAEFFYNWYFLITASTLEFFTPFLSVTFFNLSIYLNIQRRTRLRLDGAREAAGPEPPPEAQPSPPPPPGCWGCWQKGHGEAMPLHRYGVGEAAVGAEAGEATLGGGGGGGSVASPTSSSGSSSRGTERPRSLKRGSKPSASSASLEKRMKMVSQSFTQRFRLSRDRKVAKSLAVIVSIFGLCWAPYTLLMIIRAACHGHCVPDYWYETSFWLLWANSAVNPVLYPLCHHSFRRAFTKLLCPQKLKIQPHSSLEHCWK
Procedure text: Inhibition of histamine H3 receptor (unknown origin) at 10 uM by PDSP assay relative to control
Measurement label: inhibition

Completed entries (count: 2):
c1ccc(CCN[C@H]2C3C4CC5C6C4CC3C6C52)nc1 (stereo partly drawn) :: < 50%
CN(Cc1ccccc1)[C@H]1C2C3CC4C2C(=O)C2C4C3C21 (stereo partly drawn) :: < 50%

Consider the record given below.
inhibition lookup needed for CN(Cc1cccnc1)[C@H]1C2C3CC4C2C(=O)C2C4C3C21 (stereo partly drawn) , thanks.
< 50%

---

A collection of compounds and their measured inhibition
Target under test: Mu-type opioid receptor (Homo sapiens)
Sequence (P35372 whole entry): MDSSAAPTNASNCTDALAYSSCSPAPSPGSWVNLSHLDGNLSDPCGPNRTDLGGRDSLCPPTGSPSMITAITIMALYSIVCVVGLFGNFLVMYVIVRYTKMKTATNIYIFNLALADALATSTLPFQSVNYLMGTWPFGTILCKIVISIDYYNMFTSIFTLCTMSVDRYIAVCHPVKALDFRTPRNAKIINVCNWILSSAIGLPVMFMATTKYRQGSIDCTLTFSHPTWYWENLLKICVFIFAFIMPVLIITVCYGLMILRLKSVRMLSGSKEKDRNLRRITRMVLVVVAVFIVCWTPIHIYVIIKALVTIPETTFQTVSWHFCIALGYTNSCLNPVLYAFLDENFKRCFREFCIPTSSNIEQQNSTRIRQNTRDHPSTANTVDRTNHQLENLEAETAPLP
Procedure text: Inhibition of mu opioid receptor (unknown origin) at 10 uM by PDSP assay relative to control

c1ccc(CCN[C@H]2C3C4CC5C6C4CC3C6C52)nc1 (stereo partly specified) :: < 50%
CN(Cc1ccc2c(c1)OCO2)[C@H]1C2C3CC4C5C3CC2C5C41 (stereo partly specified) :: < 50%
CN(Cc1cccnc1)[C@H]1C2C3CC4C2C(=O)C2C4C3C21 (stereo partly specified) :: < 50%
COc1ccc(CN[C@H]2C3C4CC5C6C4CC3C6C52)cc1OC (stereo partly specified) :: < 50%
COc1ccc(CN(C)[C@H]2C3C4CC5C3C(=O)C3C5C4C32)cc1OC (stereo partly specified) :: < 50%

inhibition lookup needed for CN(CCc1ccccc1)[C@H]1C2C3CC4C5C3CC2C5C41 (stereo partly specified) , thanks.
< 50%

inhibition lookup needed for c1cc2c(cc1CN[C@H]1C3C4CC5C6C4CC3C6C51)OCO2 (stereo partly specified) , thanks.
< 50%

inhibition lookup needed for c1ccc(CCN[C@H]2C3C4CC5C6C4CC3C6C52)cc1 (stereo partly specified) , thanks.
< 50%

inhibition lookup needed for C1C2C3CC4C2C2C1C3[C@H](NCC13C5C6C7C5C1C7C63)C42 (stereo partly specified) , thanks.
< 50%

inhibition lookup needed for CN(CCc1ccccn1)[C@H]1C2C3CC4C2C(=O)C2C4C3C21 (stereo partly specified) , thanks.
< 50%

inhibition lookup needed for CN(Cc1ccccc1)[C@H]1C2C3CC4C2C(=O)C2C4C3C21 (stereo partly specified) , thanks.
< 50%

---

Target under test: Kappa-type opioid receptor (Homo sapiens)
Sequence (P41145 whole entry): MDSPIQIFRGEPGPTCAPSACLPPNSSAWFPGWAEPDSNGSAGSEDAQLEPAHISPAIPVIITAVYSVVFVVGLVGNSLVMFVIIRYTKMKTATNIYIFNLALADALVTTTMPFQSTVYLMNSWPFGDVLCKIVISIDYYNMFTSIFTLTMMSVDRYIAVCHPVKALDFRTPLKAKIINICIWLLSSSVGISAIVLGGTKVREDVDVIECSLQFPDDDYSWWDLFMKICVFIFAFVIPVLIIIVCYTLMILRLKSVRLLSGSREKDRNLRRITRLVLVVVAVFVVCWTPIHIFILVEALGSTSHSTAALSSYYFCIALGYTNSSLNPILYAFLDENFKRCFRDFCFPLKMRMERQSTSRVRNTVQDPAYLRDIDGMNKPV
Measurement label: Ki
Quick note: unit goes after the number.

Give recorded Ki with Kappa-type opioid receptor (Homo sapiens) for the following compound: c1ccc(CN[C@H]2C3C4CC5C6C4CC3C6C52)cc1 (stereo partly specified)
4.86 µM

---

A collection of compounds and their measured inhibition at 100 µM
Test system: RAW264.7
Procedure text: Neuroprotective activity in mouse RAW264.7 cells assessed as inhibition of LPS-stimulated nitric oxide release at 100 uM after 20 to 24 hrs by Griess assay relative to control
Assay type: functional
Give the quantity in %, number only.

inhibition at 100 µM lookup needed for c1ccc(CCN[C@H]2C3C4CC5C6C4CC3C6C52)cc1 (some centres not stated) , thanks.
17.5

inhibition at 100 µM lookup needed for Fc1cccc(CCCN[C@H]2C3C4CC5C6C4CC3C6C52)c1 (some centres not stated) , thanks.
48.5

---

Target under test: 5-hydroxytryptamine receptor 2B (Homo sapiens, UniProt P41595)
Sequence (P41595 whole entry): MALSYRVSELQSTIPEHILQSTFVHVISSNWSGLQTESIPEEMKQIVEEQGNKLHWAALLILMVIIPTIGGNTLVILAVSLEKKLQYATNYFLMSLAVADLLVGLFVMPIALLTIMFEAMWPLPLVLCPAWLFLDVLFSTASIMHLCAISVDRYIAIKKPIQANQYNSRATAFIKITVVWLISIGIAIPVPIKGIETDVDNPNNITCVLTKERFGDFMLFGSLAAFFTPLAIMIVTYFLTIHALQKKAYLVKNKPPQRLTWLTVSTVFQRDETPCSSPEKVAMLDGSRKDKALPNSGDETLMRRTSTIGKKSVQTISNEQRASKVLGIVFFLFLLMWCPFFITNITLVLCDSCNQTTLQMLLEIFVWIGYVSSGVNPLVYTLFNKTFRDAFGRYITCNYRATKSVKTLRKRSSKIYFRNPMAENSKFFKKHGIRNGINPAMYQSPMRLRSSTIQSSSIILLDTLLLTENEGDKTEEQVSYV
Measurement label: Ki

Ki lookup needed for CN(CCc1ccccc1)[C@H]1C2C3CC4C5C3CC2C5C41 (stereo partly specified) , thanks.
2710 nM

---

A collection of compounds and their measured pKi
Target under test: Muscarinic acetylcholine receptor M4 (Homo sapiens)
Sequence (P08173 whole entry): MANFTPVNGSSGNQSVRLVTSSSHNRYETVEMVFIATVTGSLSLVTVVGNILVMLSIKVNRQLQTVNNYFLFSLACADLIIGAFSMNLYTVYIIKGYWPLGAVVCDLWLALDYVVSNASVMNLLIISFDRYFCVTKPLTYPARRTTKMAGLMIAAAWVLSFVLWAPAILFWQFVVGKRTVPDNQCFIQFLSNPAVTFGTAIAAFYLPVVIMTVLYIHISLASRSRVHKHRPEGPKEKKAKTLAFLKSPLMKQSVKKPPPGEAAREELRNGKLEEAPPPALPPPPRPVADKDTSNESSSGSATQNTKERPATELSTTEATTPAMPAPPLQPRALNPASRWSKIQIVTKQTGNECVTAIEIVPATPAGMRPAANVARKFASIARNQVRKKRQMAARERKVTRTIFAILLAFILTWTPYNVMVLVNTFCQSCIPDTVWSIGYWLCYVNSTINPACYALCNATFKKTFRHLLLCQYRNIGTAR
Would you please state pKi, meaning minus log10 of the concentration in mol/L, as a bare number?

Completed entries (count: 4):
CN(CCc1ccccn1)[C@H]1C2C3CC4C5C3CC2C5C41 (stereo partly specified) :: 5.42
COc1ccc(CN(C)[C@H]2C3C4CC5C3C(=O)C3C5C4C32)cc1OC (stereo partly specified) :: 5.13
COc1ccc(CN(C)[C@H]2C3C4CC5C6C4CC3C6C52)cc1OC (stereo partly specified) :: 5.17
CN(Cc1cccc(F)c1)[C@H]1C2C3CC4C2C(=O)C2C4C3C21 (stereo partly specified) :: 5.39

Give recorded pKi with Muscarinic acetylcholine receptor M4 (Homo sapiens) for the following compound: CN(Cc1cccnc1)[C@H]1C2C3CC4C2C(=O)C2C4C3C21 (stereo partly specified)
5.16

Give recorded pKi with Muscarinic acetylcholine receptor M4 (Homo sapiens) for the following compound: CN(CCCc1cccc(F)c1)[C@H]1C2C3CC4C5C3CC2C5C41 (stereo partly specified)
5.41

---

Target under test: 5-hydroxytryptamine receptor 2A (Homo sapiens)
Sequence (P28223 whole entry): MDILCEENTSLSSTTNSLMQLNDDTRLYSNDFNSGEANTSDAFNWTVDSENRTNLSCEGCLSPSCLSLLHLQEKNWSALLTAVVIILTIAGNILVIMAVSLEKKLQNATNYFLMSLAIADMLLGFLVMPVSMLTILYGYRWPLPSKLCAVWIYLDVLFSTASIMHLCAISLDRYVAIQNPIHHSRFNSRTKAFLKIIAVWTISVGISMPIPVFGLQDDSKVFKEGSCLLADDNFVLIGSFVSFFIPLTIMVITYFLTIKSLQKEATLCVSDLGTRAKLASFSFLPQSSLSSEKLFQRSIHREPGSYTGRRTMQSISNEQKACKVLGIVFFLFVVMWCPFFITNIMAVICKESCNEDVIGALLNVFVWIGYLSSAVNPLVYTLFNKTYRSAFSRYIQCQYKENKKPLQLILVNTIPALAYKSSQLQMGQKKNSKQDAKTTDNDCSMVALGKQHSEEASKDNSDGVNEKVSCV
A collection of compounds and their measured pKi
Would you please state pKi, meaning minus log10 of the concentration in mol/L, as a bare number?

COc1cc(CN[C@H]2C3C4CC5C6C4CC3C6C52)cc(OC)c1OC (stereo not given in full) :: 5.51

Consider the record given below.
Give recorded pKi with 5-hydroxytryptamine receptor 2A (Homo sapiens) for the following compound: CN(CCc1ccccc1)[C@H]1C2C3CC4C5C3CC2C5C41 (stereo not given in full)
5.76

---

Notes on pKi obtained with D(3) dopamine receptor (Homo sapiens, UniProt P35462).
Sequence (P35462 whole entry): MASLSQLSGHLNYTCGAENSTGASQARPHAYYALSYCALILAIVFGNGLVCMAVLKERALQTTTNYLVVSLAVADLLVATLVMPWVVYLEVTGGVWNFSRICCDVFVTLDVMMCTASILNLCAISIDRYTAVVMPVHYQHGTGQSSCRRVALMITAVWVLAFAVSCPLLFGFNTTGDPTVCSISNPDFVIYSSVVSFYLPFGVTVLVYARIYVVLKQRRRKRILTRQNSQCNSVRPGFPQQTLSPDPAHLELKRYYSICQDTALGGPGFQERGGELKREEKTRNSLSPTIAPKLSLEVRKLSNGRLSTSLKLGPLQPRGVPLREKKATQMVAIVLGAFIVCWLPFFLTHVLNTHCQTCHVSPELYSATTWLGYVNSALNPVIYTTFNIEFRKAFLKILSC
pKi: −log10 of the molar value.

Completed entries (count: 2):
CN(CCc1ccccc1)[C@H]1C2C3CC4C5C3CC2C5C41 (stereo partly drawn) :: < 5.00
c1ccc(CCN[C@H]2C3C4CC5C6C4CC3C6C52)cc1 (stereo partly drawn) :: 5.06

pKi lookup needed for CN(CCCc1cccc(F)c1)[C@H]1C2C3CC4C5C3CC2C5C41 (stereo partly drawn) , thanks.
< 5.00

---

Target under test: Sigma non-opioid intracellular receptor 1 (Rattus norvegicus, UniProt Q9R0C9)
Sequence (Q9R0C9 whole entry): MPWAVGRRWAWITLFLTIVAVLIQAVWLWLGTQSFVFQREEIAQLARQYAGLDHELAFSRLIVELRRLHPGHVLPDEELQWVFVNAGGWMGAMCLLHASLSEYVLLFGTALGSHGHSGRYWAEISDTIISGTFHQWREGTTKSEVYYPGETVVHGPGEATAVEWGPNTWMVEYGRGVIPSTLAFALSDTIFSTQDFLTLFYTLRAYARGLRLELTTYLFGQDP
Procedure text: Displacement of [3H](+)-pentazocine from sigma-1 receptor in rat brain homogenates
Measurement label: Ki

C1C2C3CC4C2C2C1C3[C@H](NCC13C5C6C7C5C1C7C63)C42 (stereo partly drawn) :: 0.003 µM

Ki lookup needed for CN(CCc1ccccc1)[C@H]1C2C3CC4C5C3CC2C5C41 (stereo partly drawn) , thanks.
0.773 µM

Ki lookup needed for C1CCC(CN[C@H]2C3C4CC5C6C4CC3C6C52)CC1 (stereo partly drawn) , thanks.
0.004 µM

Ki lookup needed for CN(CCCc1cccc(F)c1)[C@H]1C2C3CC4C2C(=O)C2C4C3C21 (stereo partly drawn) , thanks.
0.133 µM

Ki lookup needed for COc1cc(CN[C@H]2C3C4CC5C6C4CC3C6C52)cc(OC)c1OC (stereo partly drawn) , thanks.
1.01 µM

Ki lookup needed for c1cncc(CN[C@H]2C3C4CC5C6C4CC3C6C52)c1 (stereo partly drawn) , thanks.
0.508 µM

Ki lookup needed for COc1cc(CN(C)[C@H]2C3C4CC5C6C4CC3C6C52)cc(OC)c1OC (stereo partly drawn) , thanks.
1.22 µM

Ki lookup needed for CN(Cc1cccc(F)c1)[C@H]1C2C3CC4C2C(=O)C2C4C3C21 (stereo partly drawn) , thanks.
0.303 µM

Ki lookup needed for CN(Cc1ccccc1)[C@H]1C2C3CC4C2C(=O)C2C4C3C21 (stereo partly drawn) , thanks.
0.568 µM

Ki lookup needed for Fc1cccc(CCCN[C@H]2C3C4CC5C6C4CC3C6C52)c1 (stereo partly drawn) , thanks.
0.0249 µM
